# protocolSummary: Particle size, PDI, Zeta and entrapment efficiency of each LNP@mRNA
# Format: physicochemical
# assayConditions: LNP@mRNA of compound:cholesterol:DSPC:PEG-DMG 50:38.5:10:1.5 molar, luciferase mRNA, PBS pH 7.4 (Example 25)
# Procedure: Compounds 1-8 were respectively dissolved in ethanol together with cholesterol, DSPC, PEG-DMG at a molar ratio of 50:38.5:10:1.5, luciferase mRNA was dissolved in a 50 mM citric acid buffered saline solution with a pH of 4.0, a volume ratio of the two solutions was 1:3, two phases were rapidly mixed by using microfluidics and a buffer environment was replaced into PBS with a pH of 7.4 by using dialysis or a tangential flow, so as to remove ethanol, and eight LNP@mRNAs were respectively prepared. […]

compound	Zeta (mV)
CCCCCCC(CCCC)C(=O)OCCCCOC(=O)CCN(CCCCCO)CCC(=O)OCCCCOC(=O)C(CCCC)CCCCCC (stereo not shown)	−12 mV
CCCCCCCCC(CCCCCC)C(=O)OCCCCOC(=O)CCN(CCCCO)CCC(=O)OCCCCOC(=O)C(CCCCCC)CCCCCCCC (stereo not shown)	−15 mV
CCCCCCCCC(CCCCCC)C(=O)OCCCCOC(=O)CCN(CCO)CCC(=O)OCCCCOC(=O)C(CCCCCC)CCCCCCCC (stereo not shown)	−9 mV
CCCCCCCCC(CCCCCC)C(=O)OCCCCOC(=O)CCN(CCCCCO)CCC(=O)OCCCCOC(=O)C(CCCCCC)CCCCCCCC (stereo not shown)	−12 mV

---

# protocolSummary: Particle size, PDI, Zeta and entrapment efficiency of each LNP@mRNA
# Type: physicochemical
# assayConditions: LNP@mRNA of compound:cholesterol:DSPC:PEG-DMG 50:38.5:10:1.5 molar, luciferase mRNA, PBS pH 7.4 (Example 25)
// reported Zeta (mV) for each item listed
observedProperty: Zeta (mV)

compound	endpointResult
CCCCCCC(CCCC)C(=O)OCCCCOC(=O)CCN(CCO)CCC(=O)OCCCCOC(=O)C(CCCC)CCCCCC (stereo not shown)	−13
CCCCCCC(CCCC)C(=O)OCCCCOC(=O)CCN(CCCCO)CCC(=O)OCCCCOC(=O)C(CCCC)CCCCCC (stereo not shown)	−18
CCCCCCCCC(CCCCCC)C(=O)OCCCCOC(=O)CCN(CCCO)CCC(=O)OCCCCOC(=O)C(CCCCCC)CCCCCCCC (stereo not shown)	−14
CCCCCCC(CCCC)C(=O)OCCCCOC(=O)CCN(CCCO)CCC(=O)OCCCCOC(=O)C(CCCC)CCCCCC (stereo not shown)	−12

---

// reported Particle size (nm) for each item listed
# protocolSummary: Particle size, PDI, Zeta and entrapment efficiency of each LNP@mRNA
# Assay type: physicochemical
# assayConditions: LNP@mRNA of compound:cholesterol:DSPC:PEG-DMG 50:38.5:10:1.5 molar, luciferase mRNA, PBS pH 7.4 (Example 25)

compound	unitTag	Particle size (nm)
CCCCCCC(CCCC)C(=O)OCCCCOC(=O)CCN(CCCO)CCC(=O)OCCCCOC(=O)C(CCCC)CCCCCC (centres unmarked)	nm	125
CCCCCCCCC(CCCCCC)C(=O)OCCCCOC(=O)CCN(CCO)CCC(=O)OCCCCOC(=O)C(CCCCCC)CCCCCCCC (centres unmarked)	nm	95
CCCCCCC(CCCC)C(=O)OCCCCOC(=O)CCN(CCCCCO)CCC(=O)OCCCCOC(=O)C(CCCC)CCCCCC (centres unmarked)	nm	124
CCCCCCCCC(CCCCCC)C(=O)OCCCCOC(=O)CCN(CCCO)CCC(=O)OCCCCOC(=O)C(CCCCCC)CCCCCCCC (centres unmarked)	nm	68
CCCCCCC(CCCC)C(=O)OCCCCOC(=O)CCN(CCO)CCC(=O)OCCCCOC(=O)C(CCCC)CCCCCC (centres unmarked)	nm	114
CCCCCCCCC(CCCCCC)C(=O)OCCCCOC(=O)CCN(CCCCCO)CCC(=O)OCCCCOC(=O)C(CCCCCC)CCCCCCCC (centres unmarked)	nm	77
CCCCCCC(CCCC)C(=O)OCCCCOC(=O)CCN(CCCCO)CCC(=O)OCCCCOC(=O)C(CCCC)CCCCCC (centres unmarked)	nm	116
CCCCCCCCC(CCCCCC)C(=O)OCCCCOC(=O)CCN(CCCCO)CCC(=O)OCCCCOC(=O)C(CCCCCC)CCCCCCCC (centres unmarked)	nm	76
